test system: MCF-7; assay: SRB anti-proliferative assay, MCF-7; type: cell-based, Human; conditions: Homo sapiens, MCF7, read-out: GI50 MCF-7
GI50 vs 60 nM: less than gives T; not less than gives F.

| Molecule | Measured on | Class name |
| --- | --- | --- |
| COc1ccc(C=Cc2cc(OC)c(OC)c(OC)c2)c(NC(=O)/C=C/c2cccc(O)c2)c1O [Compound 20g] | MCF-7 | F |
| COc1ccc(C=Cc2cc(OC)c(OC)c(OC)c2)c(NC(=O)/C=C/c2ccc(C(F)(F)F)cc2)c1O [Compound 20n] | MCF-7 | F |
| COc1ccc(C=Cc2cc(OC)c(OC)c(OC)c2)c(NC(=O)/C=C/c2ccc(F)c(F)c2)c1O [Compound 20aa] | MCF-7 | T |
| C#CCOc1cccc(/C=C/C(=O)Nc2c(C=Cc3cc(OC)c(OC)c(OC)c3)ccc(OC)c2O)c1 [Compound 20h] | MCF-7 | F |
| COc1ccc(C=Cc2cc(OC)c(OC)c(OC)c2)c(NC(=O)/C=C/c2cc(OC)c(OC)c(OC)c2)c1O [Compound 20ab] | MCF-7 | F |
| COc1ccc(C=Cc2cc(OC)c(OC)c(OC)c2)c(NC(=O)/C=C/c2ccc([N+](=O)[O-])cc2)c1O [Compound 20o] | MCF-7 | F |
